System: HEK293
Assay: Inhibition of TNFalpha-induced NF-kappaB activity expressed in human HEK 293 cells at 50 uM after 6 hrs by luciferase reporter gene assay
Format: cell-based
Measured inhibition, listed per entry for reference.

{"columns": ["COMPOUND", "TESTED TARGET", "inhibition (%)"],
 "data": [
  ["CO[C@]12CC[C@](C)(/C=C3/OC(=O)C(CO)=C3[C@@H](O)C[C@H]1C)O2", "HEK293", 33.4],
  ["C/C=C(\\C)C(=O)O[C@H]1C[C@@H](C)[C@]2(O)CC[C@](C)(/C=C3/OC(=O)C(CO)=C31)O2 (relative stereo)", "HEK293", 98.6],
  ["C=C(C)C(=O)O[C@H]1C[C@@H](C)[C@]2(O)CC[C@](C)(/C=C3/OC(=O)C(COC(C)=O)=C31)O2", "HEK293", 95.8],
  ["C/C=C(\\C)C(=O)O[C@H]1C[C@@H](C)[C@]2(O)CC[C@](C)(/C=C3/OC(=O)C(COC(C)=O)=C31)O2", "HEK293", 99.6]
]}

* * *

Experiment: Cytotoxicity in human HEK293 cells assessed as survival at 50 uM
Type: cell-based
Details: read-out: Survival

{"columns": ["MOLECULE", "viability at 50 µM / %"],
 "data": [
  ["C[C@@H]1C[C@H](O)C2=C(CO)C(=O)O/C2=C/[C@@]2(C)CC[C@]1(O)O2", 100],
  ["C/C=C(\\C)C(=O)O[C@H]1C[C@@H](C)[C@]2(OC)CC[C@](C)(/C=C3/OC(=O)C(CO)=C31)O2", 9.3],
  ["C/C=C(\\C)C(=O)O[C@H]1C[C@@H](C)[C@]2(O)CC[C@](C)(/C=C3/OC(=O)C(COC(C)=O)=C31)O2", 102],
  ["C/C=C(\\C)C(=O)O[C@H]1C[C@@H](C)[C@]2(O)CC[C@](C)(/C=C3/OC(=O)C(CO)=C31)O2 (relative stereo)", 87.6],
  ["C/C=C(\\C)C(=O)O[C@H]1C[C@@H](C)[C@]2(OC)CC[C@](C)(/C=C3/OC(=O)C(COC(C)=O)=C31)O2", 16.5],
  ["CO[C@]12CC[C@](C)(/C=C3/OC(=O)C(CO)=C3[C@@H](O)C[C@H]1C)O2", 91.9],
  ["C=C(C)C(=O)O[C@H]1C[C@@H](C)[C@]2(O)CC[C@](C)(/C=C3/OC(=O)C(COC(C)=O)=C31)O2", 95.1],
  ["C=C(C)C(=O)O[C@H]1C[C@@H](C)[C@]2(OC)CC[C@](C)(/C=C3/OC(=O)C(COC(C)=O)=C31)O2", 39.1],
  ["CC(=O)OCC1=C2/C(=C\\[C@@]3(C)CC[C@](O)(O3)[C@H](C)C[C@@H]2O)OC1=O", 55]
]}

* * *

System: RAW264.7
Test: Antiinflammatory activity against LPS-induced NO production in mouse RAW264.7 cells assessed as reduction in nitrite level preincubated for 15 mins prior to LPS treatment by Griess method
Format: functional, cell-based
Rule for this label: yes means IC50 is less than 7 µM; no means IC50 is at least 7 µM.

{"columns": ["MOLECULE", "ASSIGNED CLASS"],
 "data": [
  ["CNC(=N)NCCC[C@H](N)C(=O)O", "no"],
  ["C[C@@H]1C[C@H](O)C2=C(CO)C(=O)O/C2=C/[C@@]2(C)CC[C@]1(O)O2", "no"],
  ["CO[C@]12CC[C@](C)(/C=C3/OC(=O)C(CO)=C3[C@@H](O)C[C@H]1C)O2", "no"],
  ["C/C=C(\\C)C(=O)O[C@H]1C[C@@H](C)[C@]2(O)CC[C@](C)(/C=C3/OC(=O)C(COC(C)=O)=C31)O2", "yes"],
  ["C/C=C(\\C)C(=O)O[C@H]1C[C@@H](C)[C@]2(O)CC[C@](C)(/C=C3/OC(=O)C(CO)=C31)O2 (relative stereo)", "yes"],
  ["C=C(C)C(=O)O[C@H]1C[C@@H](C)[C@]2(OC)CC[C@](C)(/C=C3/OC(=O)C(COC(C)=O)=C31)O2", "yes"],
  ["C=C(C)C(=O)O[C@H]1C[C@@H](C)[C@]2(O)CC[C@](C)(/C=C3/OC(=O)C(COC(C)=O)=C31)O2", "yes"],
  ["C/C=C(\\C)C(=O)O[C@H]1C[C@@H](C)[C@]2(OC)CC[C@](C)(/C=C3/OC(=O)C(CO)=C31)O2", "yes"],
  ["C/C=C(\\C)C(=O)O[C@H]1C[C@@H](C)[C@]2(OC)CC[C@](C)(/C=C3/OC(=O)C(COC(C)=O)=C31)O2", "yes"],
  ["CC(=O)OCC1=C2/C(=C\\[C@@]3(C)CC[C@](O)(O3)[C@H](C)C[C@@H]2O)OC1=O", "yes"]
]}

Entry source: ChEMBL document CHEMBL2062500
